# Test system: HT29 colon
# Test details: NCI-60 one-dose screen, 48 h (100 = growth as untreated, 0 = no growth, -100 = all killed)
# Experimental context: 10 µM unless noted
The panel holds about 83,000 compounds, 20% with a hit somewhere; the sample as a whole holds those more often. The source made the active and inactive calls. Rule for the calls: active = growth percent below 10; inactive = the rest.
Reported metric: growth

CC(C)CCSc1nc(NNC(N)=O)c(C#N)c(-c2ccccc2)n1 | 115% (inactive)
CCOC(=O)N1CCN(CCCCl)CC1 | 107% (inactive)
COc1ccc2c(Nc3ccc(NS(C)(=O)=O)cc3)c3ccccc3nc2c1 | -45.4% (active)
Nc1c(C(=O)Nc2ccc(Cl)cc2)cc(-c2nc3ccccc3s2)c(=O)n1NS(=O)(=O)c1ccc(Cl)cc1 | 104% (inactive)
COc1ccc(-c2cnnc3c(-c4cccc(C(F)(F)F)c4)cnn23)cc1 | 63.6% (inactive)

For every item in the list below, what is its measured growth?
1. O=C(O)C(/C=C/c1ccco1)=N\Nc1nc(-c2ccc(Cl)cc2)cs1
2. CCCNC(=O)Oc1ccc(/C(=C(\C)c2ccccc2)c2ccc(OCCN3CCCCC3)cc2)cc1

*A*
1. 86.4% (inactive)
2. 4.11% (active)
